Source: patent US20260258035A1

STUDY_TARGET: PARG (Homo sapiens)
Sequence (Q86W56 whole entry): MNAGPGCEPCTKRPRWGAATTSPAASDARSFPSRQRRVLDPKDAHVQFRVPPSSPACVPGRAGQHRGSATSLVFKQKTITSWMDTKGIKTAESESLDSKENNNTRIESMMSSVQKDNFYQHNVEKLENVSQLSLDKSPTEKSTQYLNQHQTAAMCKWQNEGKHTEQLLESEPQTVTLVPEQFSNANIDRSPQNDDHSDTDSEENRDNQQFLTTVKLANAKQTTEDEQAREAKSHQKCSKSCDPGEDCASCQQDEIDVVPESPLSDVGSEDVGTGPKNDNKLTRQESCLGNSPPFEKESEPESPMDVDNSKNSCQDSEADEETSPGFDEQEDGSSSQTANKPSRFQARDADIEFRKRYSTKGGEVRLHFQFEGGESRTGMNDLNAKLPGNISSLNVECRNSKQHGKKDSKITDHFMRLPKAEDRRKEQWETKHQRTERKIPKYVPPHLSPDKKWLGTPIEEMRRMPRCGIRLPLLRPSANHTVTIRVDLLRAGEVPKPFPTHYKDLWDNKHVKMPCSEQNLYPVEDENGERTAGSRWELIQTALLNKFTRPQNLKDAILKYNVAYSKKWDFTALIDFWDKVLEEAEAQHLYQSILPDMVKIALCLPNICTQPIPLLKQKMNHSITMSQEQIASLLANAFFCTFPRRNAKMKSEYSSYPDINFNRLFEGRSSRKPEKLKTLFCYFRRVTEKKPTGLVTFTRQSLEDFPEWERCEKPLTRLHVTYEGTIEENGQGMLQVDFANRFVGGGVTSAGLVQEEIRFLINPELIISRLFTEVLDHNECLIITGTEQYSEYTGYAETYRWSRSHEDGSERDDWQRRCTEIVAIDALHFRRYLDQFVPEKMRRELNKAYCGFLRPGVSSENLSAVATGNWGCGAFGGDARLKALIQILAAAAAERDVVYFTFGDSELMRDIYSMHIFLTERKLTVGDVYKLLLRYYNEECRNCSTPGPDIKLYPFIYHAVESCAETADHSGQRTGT
TEST_DETAILS: Biochemical assay (PARG, TFMU-ADPr substrate)
EXPERIMENTAL_PARAMETERS: 4 nM PARG, 66.2 uM TFMU-ADPr, 3 min at room temperature
RESULT_TYPE: IC50

These solved cases illustrate the format of a correct answer.
What the record says about N#CC1(NS(=O)(=O)c2cc(N3CCC(O)(C(F)(F)F)CC3)c3cnc(-c4nnc(C(F)F)s4)n3c2)CC1 [Example 89] : IC50 is 100 to 500 nM

What the record says about CC(C)C(=O)N1CCN(c2cc(S(=O)(=O)NC3(C#N)CC3)cn3c(-c4nnc(C(F)F)s4)nc(Cl)c23)CC1 [Example 122] : IC50 is < 100 nM

What the record says about CC(C)C(=O)N1CCN(c2cc(S(=O)(=O)NC3(CO)CC3)cn3c(-c4nnc(C(F)F)s4)ncc23)CC1 [Example 37] : IC50 is < 100 nM

What the record says about C[C@H]1CN(c2cc(S(=O)(=O)NC3(C#N)CC3)cn3c(-c4nnc(C(F)F)s4)ncc23)CCN1C(=O)C1(C)CC1 [Example 86] : IC50 is < 100 nM

What the record says about N#CC1(NS(=O)(=O)c2cc(N3CC4COCC4C3)c3cnc(-c4nnc(C(F)F)s4)n3c2)CC1 (centres unmarked) [Example 79] : IC50 is < 100 nM

More entries:
What the record says about CC(N1CCN(c2cc(S(=O)(=O)NC3(C#N)CC3)cn3c(-c4nnc(C(F)F)s4)ncc23)C[C@H]1C)C(F)(F)F (some centres unmarked) [Example 83] : IC50 is 100 to 500 nM

What the record says about N#CC1(NS(=O)(=O)c2cc(-c3ccc(OC(F)(F)F)cc3)c3cnc(-c4nnc(C(F)F)s4)n3c2)CC1 [Example 141] : IC50 is 100 to 500 nM

What the record says about CC(C)C(=O)N1CCN(c2c(F)c(S(=O)(=O)NC3(C#N)CC3)cn3c(-c4nnc(C(F)F)s4)ncc23)CC1 [Example 52] : IC50 is < 100 nM

What the record says about C[C@@H]1CN(c2cc(S(=O)(=O)NC3(C#N)CC3)cn3c(-c4nnc(C(F)F)s4)ncc23)CCN1C(CO)C(F)(F)F (some centres unmarked) [Example 144] : IC50 is 100 to 500 nM

What the record says about CC(C)C(=O)N1CCN(c2cc(S(=O)(=O)N[C@H]3C[C@H]3F)cn3c(-c4nnc(C(F)F)s4)ncc23)CC1 [Example 82] : IC50 is 100 to 500 nM

What the record says about CC1(C(=O)N2CCN(c3cc(S(=O)(=O)NC4(C#N)CC4)cn4c(-c5nnc(C(F)F)s5)ncc34)CC2(C)C)CC1 [Example 95] : IC50 is < 100 nM

What the record says about [2H]C1([2H])CCC1([2H])NS(=O)(=O)c1cc(N2CCN(C(=O)C(C)C)CC2)c2cnc(-c3nnc(C(F)F)s3)n2c1 (centres unmarked) [Example 57] : IC50 is < 100 nM

What the record says about C#CC1(NS(=O)(=O)c2cc(N3CCN(C(=O)C(C)C)CC3)c3nnc(-c4nnc(C(F)F)s4)n3c2)COC1 [Example 101] : IC50 is < 100 nM
